Data credit: patent US20250154277A1

- MEASURED ON: T1, human 5T4-His protein (human, UniProt Q13641 32-355)
- T1 construct: also called recombinant 5T4 protein (human 5T4-his tag); human 5T4 protein; not shown: His tag
- T1 sequence (looked up): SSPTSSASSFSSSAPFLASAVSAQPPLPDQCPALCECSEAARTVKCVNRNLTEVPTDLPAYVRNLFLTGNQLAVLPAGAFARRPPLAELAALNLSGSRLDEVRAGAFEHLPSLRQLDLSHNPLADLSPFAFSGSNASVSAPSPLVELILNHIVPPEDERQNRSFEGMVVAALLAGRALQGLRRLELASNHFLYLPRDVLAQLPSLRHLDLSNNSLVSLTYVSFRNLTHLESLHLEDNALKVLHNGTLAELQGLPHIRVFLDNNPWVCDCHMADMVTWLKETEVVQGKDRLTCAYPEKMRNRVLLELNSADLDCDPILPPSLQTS
- ASSAY REMARKS: SPR Biacore, Protein A capture
Listing: kon of selected binders
QUANTITY NAME: kon

| BINDER | RESULT |
| --- | --- |
| 393E9_hVH3_hVL5 (antibody, V domains shown, humanized) VH: QVQLVESGGGVVQPGGSLRLSCAASGFTFTDYYMSWVRQAPGKGLEWVGFIRNKGNGYTTENSASVKGRFTISRDNSKSTLYLQMNSLRAEDTAVYYCARYRGNPHYAMDYWGQGTLVTVSS VL: EIVLTQSPGTLSLSPGERATLSCRASESVEFYGTSFLQWYQQKPGQAPRLLIYGASNVESGIPDRFSGSGSGTDFTLTISRLEPEDIAVYFCQQSRKVPSTFGGGTKVEIK | 238000 M⁻¹ s⁻¹ |
| 393E9_hVH5_hVL4 (antibody, V domains shown, humanized) VH: EVQLVESGGGLVQPGRSLRLSCTASGFTFTDYYMSWVRQAPGKGLEWVGFIRNKGNGYTTENSASVKGRFTISRDNSKSILYLQMNSLKTEDTAVYYCARYRGNPHYAMDYWGQGTLVTVSS VL: DIVLTQSPLSLPVTPGEPASISCRASESVEFYGTSFLQWYLQKPGQSPQLLIYGASNVESGVPDRFSGSGSGTDFTLKISRVEAEDIGVYFCQQSRKVPSTFGGGTKVEIK | 184000 M⁻¹ s⁻¹ |
